- TESTED ON: CDK7/Cyclin H/MNAT1 (Homo sapiens) (UniProt P51946+P50613+P51948)
- METHOD SUMMARY: Enzymatic radiometric [Km ATP] KinaseProfiler LeadHunter assay, kinase: CDK7/cyclinH/MAT1, catalogue number: 14-476KP The assay has been performed by Eurofins Discovery.
- Assay type: protein-complex assay
- MEASUREMENT SETUP: ATP concentration 90.0 uM, Test compound concentration 10.0 uM
VALUE KIND: Activity (%)
Record the value in %, omitting the unit from your answer.

• CC(C)[C@H](Nc1ncnc2[nH]c(-c3cnn(C)c3C#N)cc12)c1ccc2c(n1)OCCO2 = 98
• Cn1ncc(-c2cc3c(N[C@@H](c4ccc5c(n4)OCCO5)C(C)(C)C)ncnc3[nH]2)c1C#N = 108
• C[C@H](C(=O)O)[C@@H](NC(=O)c1ncnc2[nH]ccc12)c1ccc(Br)cc1 = 99
• CNCc1cc(-c2cc3c(N[C@@H](c4ccc5c(c4)S(=O)(=O)CCC5)C(C)C)ncnc3[nH]2)co1 = 100
• CNC(=O)Cn1cc(-c2cc3c(N[C@@H](c4ccc5c(c4)S(=O)(=O)CCC5)C(C)C)ncnc3[nH]2)cn1 = 95
• CC(C)[C@H](Nc1ncnc2[nH]ccc12)c1ccc2c(c1)S(=O)(=O)CCC2 = 89
• CC(C)[C@@H](Nc1ncnc2[nH]ccc12)c1ccc2c(c1)S(=O)(=O)CCC2 = 85
• Cc1nn(C)cc1-c1cc2c(N[C@H](c3ccc4c(c3)S(=O)(=O)CCC4)C(C)C)ncnc2[nH]1 = 93

Here is the next item to consider.
Reported Activity for COc1ccc([C@@H](Cc2nnn[nH]2)NC(=O)c2ncnc3[nH]ccc23)cc1 : what is it? 91
